Taken from patent US20240116985A1.

# MEASUREMENT TARGET: full-length beta-Catenin (Uniprot ID P35222) (Homo sapiens (Human)) (UniProt P35222)
# PROCEDURE TEXT: fluorescence polarization competition; full-length beta-catenin, competitor 5FAM-TCF4(10-53) probe
Starred links: 1 amine or outer side, 2 acyl side, 3 side chain; linkers in the order of their positions; H or OH if unused. Positions of bridges follow the written chain, without caps; N, C: chain ends. Non-standard residues stand in square brackets, D forms with d. Primed or numbered codes have the meaning given here. No end group written: not given here. *: point of attachment. PyrS2″ = (S)-3-amino-1-((pent-4-en-1-yloxy)carbonyl)pyrrolidine-3-carboxylic acid (stapling residue), C=CCCCOC(=O)N1CC[C@@](N[*:1])(C(=O)[*:2])C1; B5(4) = 2,2-bis(4-pentenyl)glycine = 2-amino-2-(pent-4-en-1-yl)hept-6-enoic acid (stitching residue), C=CCCCC(CCCC=C)(N[*:1])C(=O)[*:2]; B5(5) = 2,2-bis(4-pentenyl)glycine, 2-amino-2-(pent-4-en-1-yl)hept-6-enoic acid (stitching residue), C=CCCCC(CCCC=C)(N[*:1])C(=O)[*:2]; TfeGA = (S)-2-amino-3-((carboxymethyl)(2,2,2-trifluoroethyl)amino)propanoic acid, O=C([C@H](CN(CC(=O)[*:3])CC(F)(F)F)N[*:1])[*:2]; PyrS2 = (S)-3-amino-1-((pent-4-en-1-yloxy)carbonyl)pyrrolidine-3-carboxylic acid, C=CCCCOC(=O)N1CC[C@@](N[*:1])(C(=O)[*:2])C1; B5(13) = 2-amino-2-(pent-4-en-1-yl)hept-6-enoic acid (two alkene chains), C=CCCCC(CCCC=C)(N[*:1])C(=O)[*:2]; EtGA = (S)-2-amino-3-((carboxymethyl)(ethyl)amino)propanoic acid, CCN(CC(=O)[*:3])C[C@H](N[*:1])C(=O)[*:2]; B5(3) = 2,2-bis(4-pentenyl)glycine (stitching residue), C=CCCCC(CCCC=C)(N[*:1])C(=O)[*:2]; B5 = 2-amino-2-(pent-4-en-1-yl)hept-6-enoic acid, C=CCCCC(CCCC=C)(N[*:1])C(=O)[*:2]; Phe(3-COOH) = N[C@@H](Cc1cccc(C(=O)O)c1)C(=O)O; Phe(4-COOH) = N[C@@H](Cc1ccc(C(=O)O)cc1)C(=O)O; Phe(2-CF3) = N[C@@H](Cc1ccccc1C(F)(F)F)C(=O)O; Bta = N[C@@H](Cc1csc2ccccc12)C(=O)O; αAllylPro = C=CC[C@@]1(C(=O)O)CCCN1; Azidoacetyl = [N-]=[N+]=NCC(=O)*; tBuAla = CC(C)(C)C[C@H](N)C(=O)O; 3Thi = N[C@@H](Cc1ccsc1)C(=O)O; S8 = C=CCCCCCC[C@](C)(N)C(=O)O; Thr(ol) = C[C@@H](O)[C@H](N)CO
READOUT TYPE: log10(EC50) (log10 of the value in nM)
Plainly stated, the numbers are log10 of EC50 given in nM.

query: # get_value(readout='log10(EC50)', item= Ac-[αAllylPro]DI[B5(5)]D[EtGA]AAFQ[S8]F[Bta]Q-NH2 (staple 1-4, 4-11; also: staple isomer 2) [I-609] )
result: 1.90

query: # get_value(readout='log10(EC50)', item= Ac-[αAllylPro]DI[B5(5)]D[Phe(4-COOH)]AAFQ[S8]F[Bta]Q-NH2 (staple 1-4, 4-11) [I-607] )
result: 2.40

query: # get_value(readout='log10(EC50)', item= Ac-[αAllylPro]D[tBuAla][B5(13)]DDAAFN[PyrS2]F[Bta]H-NH2 (staple 1-4, 4-11) [I-777] )
result: 0.70

query: # get_value(readout='log10(EC50)', item= Azidoacetyl-[αAllylPro]D[tBuAla][B5(5)][3Thi][TfeGA]AAFN[PyrS2]D[Bta]Q-NH2 (staple 1-4, 4-11; also: staple isomer unspecified: earlier eluting HPLC peak) [I-1056] )
result: 3.81

query: # get_value(readout='log10(EC50)', item= Ac-[αAllylPro]DI[B5]D[TfeGA]AAFQ[S8]F[Bta]Q-NH2 (staple 1-4, 4-11; not fully specified) [I-610] )
result: 1.73

query: # get_value(readout='log10(EC50)', item= [αAllylPro]D[tBuAla][B5(4)]D[Phe(3-COOH)]AAFF[PyrS2″][Phe(2-CF3)][Bta]S-NH2 (staple 1-4; staple 4-11 (inferred)) [I-1342] )
result: 1.54

query: # get_value(readout='log10(EC50)', item= Ac-[αAllylPro]D[tBuAla][B5(3)]DEAAFL[PyrS2″]F[Bta]Q-NH2 (staple 1-4, 4-11; also: staple stereoisomer: later eluting HPLC peak) [I-1074] )
result: 2.70

query: # get_value(readout='log10(EC50)', item= Ac-[αAllylPro]D[tBuAla][B5(4)]D[Phe(3-COOH)]AAFF[PyrS2″][Phe(2-CF3)][Bta][Thr(ol)] (staple 1-4; staple 4-11 (inferred)) [I-1343] )
result: 2.18
